tested on: MCF7; assay: percentage of EdU-negative (G0-arrested) nuclei per well, 72 h; higher = more G0 arrest; conditions: protein concentration 0.0225 µM; reference: sequence is the full UniProt precursor, the tested protein was the secreted form or ectodomain;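 note: secreted proteins added to cultured cells, EdU pulse at the end, nuclei found by Hoechst imaging, EdU status from nuclear versus surrounding ring intensity ratio, PBS as neutral control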
Below, each entry is listed alongside its reported percentage of EdU-negative.
quantity: percentage of EdU-negative (%)

[[record]]
chain = "MKGILVAGITAVLVAAVESLSCVQCNSWEKSCVNSIASECPSHANTSCISSSASSSLETPVRLYQNMFCSAENCSEETHITAFTVHVSAEEHFHFVSQCCQGKECSNTSDALDPPLKNVSSNAECPACYESNGTSCHGKPWKCYEEEQCVFLVAELKNDIESKSLVLKGCSNVSNATCQFLSGENKTLGGVIFRKFECANVNSLTPTSAPTTSHNVGSKASLYLLALASLLLRGLLP [Q6UX82]"
test_system = "MCF7"
value_measured = 26.8

[[record]]
chain = "MLWRQLIYWQLLALFFLPFCLCQDEYMESPQTGGLPPDCSKCCHGDYSFRGYQGPPGPPGPPGIPGNHGNNGNNGATGHEGAKGEKGDKGDLGPRGERGQHGPKGEKGYPGIPPELQIAFMASLATHFSNQNSGIIFSSVETNIGNFFDVMTGRFGAPVSGVYFFTFSMMKHEDVEEVYVYLMHNGNTVFSMYSYEMKGKSDTSSNHAVLKLAKGDEVWLRMGNGALHGDHQRFSTFAGFLLFETK [Q9BXJ4]"
test_system = "MCF7"
value_measured = 24.8


* * *

test system: MCF7; assay: percentage of EdU-negative (G0-arrested) nuclei per well, 72 h; higher = more G0 arrest; settings: protein concentration 0.0225 µM; reference: sequence is the full UniProt precursor, the tested protein was the secreted form or ectodomain
quantity: percentage of EdU-negative (%)

[[record]]
chain = "MATHHTLWMGLALLGVLGDLQAAPEAQVSVQPNFQQDKFLGRWFSAGLASNSSWLREKKAALSMCKSVVAPATDGGLNLTSTFLRKNQCETRTMLLQPAGSLGSYSYRSPHWGSTYSVSVVETDYDQYALLYSQGSKGPGEDFRMATLYSRTQTPRAELKEKFTAFCKAQGFTEDTIVFLPQTDKCMTEQ"
test_system = "MCF7"
value_measured = 27.3

[[record]]
chain = "MRMLLALLALSAARPSASAESHWCYEVQAESSNYPCLVPVKWGGNCQKDRQSPINIVTTKAKVDKKLGRFFFSGYDKKQTWTVQNNGHSVMMLLENKASISGGGLPAPYQAKQLHLHWSDLPYKGSEHSLDGEHFAMEMHIVHEKEKGTSRNVKEAQDPEDEIAVLAFLVEAGTQVNEGFQPLVEALSNIPKPEMSTTMAESSLLDLLPKEEKLRHYFRYLGSLTTPTCDEKVVWTVFREPIQLHREQILAFSQKLYYDKEQTVSMKDNVRPLQQLGQRTVIKSGAPGRPLPWALPALLGPMLACLLAGFLR"
test_system = "MCF7"
value_measured = 24.9


* * *

tested on: hTERT-HMEC; experiment: percentage of EdU-negative (G0-arrested) nuclei per well, 72 h; higher = more G0 arrest; conditions: protein concentration 0.225 µM; reference: sequence is the full UniProt precursor, the tested protein was the secreted form or ectodomain
quantity: percentage of EdU-negative (%)

[[record]]
chain = "MLLLLTLALLGGPTWAGKMYGPGGGKYFSTTEDYDHEITGLRVSVGLLLVKSVQVKLGDSWDVKLGALGGNTQEVTLQPGEYITKVFVAFQAFLRGMVMYTSKDRYFYFGKLDGQISSAYPSQEGQVLVGIYGQYQLLGIKSIGFEWNYPLEEPTTEPPVNLTYSANSPVGR [Q96DA0]"
quantity = "percentage of EdU-negative"
value_measured = 9.31

[[record]]
chain = "MEEAILVPCVLGLLLLPILAMLMALCVHCHRLPGSYDSTSSDSLYPRGIQFKRPHTVAPWPPAYPPVTSYPPLSQPDLLPIPRSPQPLGGSHRTPSSRRDSDGANSVASYENEGASGIRGAQAGWGVWGPSWTRLTPVSLPPEPACEDADEDEDDYHNPGYLVVLPDSTPATSTAAPSAPALSTPGIRDSAFSMESIDDYVNVPESGESAEASLDGSREYVNVSQELHPGAAKTEPAALSSQEAEEVEEEGAPDYENLQELN"
quantity = "percentage of EdU-negative"
value_measured = 5.58

[[record]]
chain = "MEALPLLAATTPDHGRHRRLLLLPLLLFLLPAGAVQGWETEERPRTREEECHFYAGGQVYPGEASRVSVADHSLHLSKAKISKPAPYWEGTAVIDGEFKELKLTDYRGKYLVFFFYPLDFTFVCPTEIIAFGDRLEEFRSINTEVVACSVDSQFTHLAWINTPRRQGGLGPIRIPLLSDLTHQISKDYGVYLEDSGHTLRGLFIIDDKGILRQITLNDLPVGRSVDETLRLVQAFQYTDKHGEVCPAGWKPGSETIIPDPAGKLKYFDKLN"
quantity = "percentage of EdU-negative"
value_measured = 4.84

[[record]]
chain = "MARVLKAAAANAVGLFSRLQAPIPTVRASSTSQPLDQVTGSVWNLGRLNHVAIAVPDLEKAAAFYKNILGAQVSEAVPLPEHGVSVVFVNLGNTKMELLHPLGRDSPIAGFLQKNKAGGMHHICIEVDNINAAVMDLKKKKIRSLSEEVKIGAHGKPVIFLHPKDCGGVLVELEQA [Q96PE7]"
quantity = "percentage of EdU-negative"
value_measured = 6.08

[[record]]
chain = "MGSGPRGALSLLLLLLAPPSRPAAGCPAPCSCAGTLVDCGRRGLTWASLPTAFPVDTTELVLTGNNLTALPPGLLDALPALRTAHLGANPWRCDCRLVPLRAWLAGRPERAPYRDLRCVAPPALRGRLLPYLAEDELRAACAPGPLCWGALAAQLALLGLGLLHALLLVLLLCRLRRLRARARARAAARLSLTDPLVAERAGTDES"
quantity = "percentage of EdU-negative"
value_measured = 6.21

[[record]]
chain = "MSGGRAPAVLLGGVASLLLSFVWMPALLPVASRLLLLPRVLLTMASGSPPTQPSPASDSGSGYVPGSVSAAFVTCPNEKVAKEIARAVVEKRLAACVNLIPQITSIYEWKGKIEEDSEVLMMIKTQSSLVPALTDFVRSVHPYEVAEVIALPVEQGNFPYLQWVRQVTESVSDSITVLP"
quantity = "percentage of EdU-negative"
value_measured = 5.97

[[record]]
chain = "MCVGARRLGRGPCAALLLLGLGLSTVTGLHCVGDTYPSNDRCCHECRPGNGMVSRCSRSQNTVCRPCGPGFYNDVVSSKPCKPCTWCNLRSGSERKQLCTATQDTVCRCRAGTQPLDSYKPGVDCAPCPPGHFSPGDNQACKPWTNCTLAGKHTLQPASNSSDAICEDRDPPATQPQETQGPPARPITVQPTEAWPRTSQGPSTRPVEVPGGRAVAAILGLGLVLGLLGPLAILLALYLLRRDQRLPPDAHKPPGGGSFRTPIQEEQADAHSTLAKI"
quantity = "percentage of EdU-negative"
value_measured = 6.68

[[record]]
chain = "MVRMVPVLLSLLLLLGPAVPQENQDGRYSLTYIYTGLSKHVEDVPAFQALGSLNDLQFFRYNSKDRKSQPMGLWRQVEGMEDWKQDSQLQKAREDIFMETLKDIVEYYNDSNGSHVLQGRFGCEIENNRSSGAFWKYYYDGKDYIEFNKEIPAWVPFDPAAQITKQKWEAEPVYVQRAKAYLEEECPATLRKYLKYSKNILDRQDPPSVVVTSHQAPGEKKKLKCLAYDFYPGKIDVHWTRAGEVQEPELRGDVLHNGNGTYQSWVVVAVPPQDTAPYSCHVQHSSLAQPLVVPWEAS"
quantity = "percentage of EdU-negative"
value_measured = 5.19

[[record]]
chain = "MSVMKPCLMTIAILMILAQKTPGGLFRSHNGKSREPWNPCELYQGMCRNACREYEIQYLTCPNDQKCCLKLSVKITSSKNVKEDYDSNSNLSVTNSSSYSHI [Q30KQ4]"
quantity = "percentage of EdU-negative"
value_measured = 5.56

[[record]]
chain = "MASLRVERAGGPRLPRTRVGRPAALRLLLLLGAVLNPHEALAQPLPTTGTPGSEGGTVKNYETAVQFCWNHYKDQMDPIEKDWCDWAMISRPYSTLRDCLEHFAELFDLGFPNPLAERIIFETHQIHFANCSLVQPTFSDPPEDVLLAMIIAPICLIPFLITLVVWRSKDSEAQA"
quantity = "percentage of EdU-negative"
value_measured = 5.12

[[record]]
chain = "MSPHPTALLGLVLCLAQTIHTQEEDLPRPSISAEPGTVIPLGSHVTFVCRGPVGVQTFRLERDSRSTYNDTEDVSQASPSESEARFRIDSVREGNAGLYRCIYYKPPKWSEQSDYLELLVKESSGGPDSPDTEPGSSAGPTQRPSDNSHNEHAPASQGLKAEHLYILIGVSVVFLFCLLLLVLFCLHRQNQIKQGPPRSKDEEQKPQQRPDLAVDVLERTADKATVNGLPEKDRETDTSALAAGSSQEVTYAQLDHWALTQRTARAVSPQSTKPMAESITYAAVARH [Q6GTX8]"
quantity = "percentage of EdU-negative"
value_measured = 5.62

[[record]]
chain = "MKYLRHRRPNATLILAIGAFTLLLFSLLVSPPTCKVQEQPPAIPEALAWPTPPTRPAPAPCHANTSMVTHPDFATQPQHVQNFLLYRHCRHFPLLQDVPPSKCAQPVFLLLVIKSSPSNYVRRELLRRTWGRERKVRGLQLRLLFLVGTASNPHEARKVNRLLELEAQTHGDILQWDFHDSFFNLTLKQVLFLQWQETRCANASFVLNGDDDVFAHTDNMVFYLQDHDPGRHLFVGQLIQNVGPIRAFWSKYYVPEVVTQNERYPPYCGGGGFLLSRFTAAALRRAAHVLDIFPIDDVFLGMCLELEGLKPASHSGIRTSGVRAPSQRLSSFDPCFYRDLLLVHRFLPYEMLLMWDALNQPNLTCGNQTQIY [Q9Y2A9]"
quantity = "percentage of EdU-negative"
value_measured = 7.88

